Reported values of JAK2/JAK1 for individual entries
Molecular target: UniProtKB O60674
Sequence (O60674 828-1132): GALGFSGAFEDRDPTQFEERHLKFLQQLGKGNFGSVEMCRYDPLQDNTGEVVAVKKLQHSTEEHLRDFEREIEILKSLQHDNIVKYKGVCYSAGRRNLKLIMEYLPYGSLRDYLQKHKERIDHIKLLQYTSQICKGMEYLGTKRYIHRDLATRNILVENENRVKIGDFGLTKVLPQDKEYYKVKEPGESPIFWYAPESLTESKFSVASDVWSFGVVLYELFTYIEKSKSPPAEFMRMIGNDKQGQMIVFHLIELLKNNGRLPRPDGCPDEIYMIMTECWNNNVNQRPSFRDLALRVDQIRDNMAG
Assay: In vitro JAK kinase assay (HTRF, Example A)
Format: biochemical
Settings: JAK2/JAK1 IC50 ratio, 1 mM ATP

SMILES_TEXT: N#CC[C@]1(n2cc(-c3ncnc4[nH]ccc34)cn2)C[C@H](N2CCC(Oc3cc(CN4CCC[C@@H]4CO)cc(C(F)(F)F)n3)CC2)C1
JAK2/JAK1: >10
--
SMILES_TEXT: N#CCC1(n2cc(-c3ncnc4[nH]ccc34)cn2)CN(C2CCN(C(=O)c3ccnc(C(F)(F)F)c3F)CC2)C1
JAK2/JAK1: >10
--
SMILES_TEXT: N#CCC1(n2cc(-c3ncnc4[nH]ccc34)cn2)CN([C@H]2CC[C@@H](Oc3cc(CN4CC[C@@H](O)C4)cc(C(F)(F)F)n3)CC2)C1
JAK2/JAK1: >10

----------
Reported values: IC50 for UniProtKB P23458, one per item.

COMPOUND: N#CCC(CN1CCN(C(=O)c2ccc(C#N)cc2F)CC1)n1ccc(-c2ncnc3[nH]ccc23)c1 (centres unmarked)
EXPERIMENTAL_TARGET: UniProtKB P23458
IC50: < 10 nM
--
COMPOUND: N#CCC1(n2cc(-c3ncnc4[nH]ccc34)cn2)CN([C@H]2CC[C@@H](Oc3cc(CN4CC[C@@H](O)C4)cc(C(F)(F)F)n3)CC2)C1
EXPERIMENTAL_TARGET: UniProtKB P23458
IC50: < 10 nM
--
COMPOUND: N#CC[C@]1(n2cc(-c3ncnc4[nH]ccc34)cn2)C[C@H](N2CCC(Oc3cc(CN4CCC[C@@H]4CO)cc(C(F)(F)F)n3)CC2)C1
EXPERIMENTAL_TARGET: UniProtKB P23458
IC50: < 10 nM
--
COMPOUND: C[C@@H](CO)NCc1cc(OC2CCN([C@H]3C[C@](CC#N)(n4cc(-c5ncnc6[nH]ccc56)cn4)C3)CC2)nc(C(F)(F)F)c1
EXPERIMENTAL_TARGET: UniProtKB P23458
IC50: < 10 nM
--
COMPOUND: C[C@@H](O)CNCc1cc(OC2CCN([C@H]3C[C@](CC#N)(n4cc(-c5ncnc6[nH]ccc56)cn4)C3)CC2)nc(C(F)(F)F)c1
EXPERIMENTAL_TARGET: UniProtKB P23458
IC50: < 10 nM
--
COMPOUND: N#CCC(CN1CCN(C(=O)c2ccc(C#N)cc2F)CC1)n1cc(-c2ncnc3[nH]ccc23)cn1 (centres unmarked)
EXPERIMENTAL_TARGET: UniProtKB P23458
IC50: < 10 nM
--
COMPOUND: N#CCC1(n2cc(-c3ncnc4[nH]ccc34)cn2)CN([C@H]2CC[C@@H](Oc3cc(CN4CC[C@H](O)C4)cc(C(F)(F)F)n3)CC2)C1
EXPERIMENTAL_TARGET: UniProtKB P23458
IC50: < 10 nM
--
COMPOUND: N#CCC1(n2cc(-c3ncnc4[nH]ccc34)cn2)CN(C2CCN(C(=O)c3ccnc(C(F)(F)F)c3F)CC2)C1
EXPERIMENTAL_TARGET: UniProtKB P23458
IC50: < 10 nM
